- Test system: M14 melanoma
- PROTOCOL_NOTES: NCI tumour cell line growth inhibition, 48 h
Categorized via TGI: low bracket = under 7 µM, middle bracket = from 7 µM up to 20 µM, high bracket = 20 µM and over

(Q) Field: class (TGI) — entry: O=Nc1c(-c2cccc([N+](=O)[O-])c2)nc2ncccn12
(A) high bracket

(Q) # repeat for Cn1c(=O)c(F)c(Nc2ccc(I)cc2F)c2c(=O)n(C[C@@H](O)CO)cnc21
(A) low bracket

(Q) # repeat for N#Cc1nn(-c2ccc(Cl)cc2)c(N)c2c(=N)n3nc(-c4ccccc4)cc3nc12
(A) high bracket

(Q) # repeat for CC(=O)c1nc2ccccc2n1CC(=O)c1ccc([N+](=O)[O-])cc1
(A) high bracket

(Q) # repeat for CCCCCCc1cc(C=O)sc1-c1ccc(-c2sc(-c3ccc(-c4ccc(-c5cc(CCCCCC)c(-c6ccc(-c7sc(C=O)cc7CCCCCC)s6)s5)s4)s3)cc2CCCCCC)s1
(A) high bracket

(Q) # repeat for NC(=O)NC(=O)CI
(A) middle bracket

====

- Test system: A498 renal
- PROTOCOL_NOTES: NCI tumour cell line growth inhibition, 48 h
Please respond with reported TGI for every item in the list.
Numbers only, in µM.

I would be grateful if you could provide TGI for each of the following entries.
1. COc1ccccc1Nc1nc(-c2cc3cccc(C(F)(F)F)c3oc2=O)cs1
2. CCOC(=O)C(=Cc1ccccc1Br)C(=O)OCC
3. NC(=O)NC(=O)CI
4. CC1(c2cccc(C3CCC4(C=CC3=O)OCCO4)c2)OCCO1 (stereo not given)

(A)
38.9
5.07
31.7
33.5

====

- System: UACC-62 melanoma
- PROTOCOL_NOTES: NCI tumour cell line growth inhibition, 48 h; in the data active = GI50 below about 0.43 µM; inactive = the rest
Pick one and only one: 1 (yes) = active, 0 (no) = inactive

COMPOUND	SYSTEM_UNDER_TEST	ASSIGNED_LABEL
COc1cc2c(/C=C3\C(=O)Nc4ccc(Br)cc43)c(Cl)n(C)c2cc1C	UACC-62 melanoma	0 (no)
Cn1cccc1-c1cc(-c2ccc(Br)cc2)nc(N)c1C#N	UACC-62 melanoma	0 (no)
Cc1ccc(/C=C2\CCOC2=O)cc1	UACC-62 melanoma	0 (no)

(Q) Test call, this compound: N#Cc1c2ccccc2c2nnc3cc(Cl)c(Cl)cc3n12
(A) 0 (no)

(Q) # repeat for O=C1c2cccnc2-c2nc(-c3ccc([N+](=O)[O-])cc3)cc3c2c1nc1ccccc13
(A) 0 (no)

(Q) # repeat for COc1cccc2c1C(=O)c1c(O)c3c(c(O)c1C2=O)C[C@@](O)(C(C)=O)C[C@@H]3OC1CC(N)C(O)C(C)O1 (stereo partly drawn)
(A) 1 (yes)

(Q) # repeat for O=C(Nc1ccccc1Cl)c1ccc(NC2=C(Cl)C(=O)N(Cc3ccccc3)C2=O)cc1
(A) 0 (no)

(Q) # repeat for O=Cc1ccc(C(F)(F)F)cc1.[C-]#[O+].[C-]#[O+].[C-]#[O+].[Cr]
(A) 0 (no)

====

Please respond with reported TGI for every item in the list.
- Tested on: A498 renal
- PROTOCOL_NOTES: NCI tumour cell line growth inhibition, 48 h
Where a SMILES comes first, the peptide text is derived from it. The star is where a group is joined. Boc = CC(C)(C)OC(=O)*; OBn = c1ccc(CO*)cc1; Bn = c1ccc(C*)cc1

COMPOUND	REPORTED_VALUE
COc1ccc(OC)c2c1C[C@@H]1C(C#N)N3[C@H](Cc4c(OC)ccc(OC)c4[C@@H]3C)C(=O)N1[C@H]2C (some centres not stated)	42.1 µM
C(=N\NC1=NCCCN1)/c1ccc(-c2cn3cc(/C=N/NC4=NCCCN4)ccc3n2)cc1	> 78.5 µM
O=C(Nc1ccccc1Cl)c1ccc(NC2=C(Cl)C(=O)N(Cc3ccccc3)C2=O)cc1	> 100 µM
CC(CN(CP(=O)([O-])[O-])CP(=O)([O-])[O-])N(CP(=O)([O-])[O-])CP(=O)([O-])[O-].N[C@@H]1CCCC[C@@H]1N.[Pt+2] (configuration not stated)	> 100 µM
N#Cc1c2ccccc2c2nnc3cc(Cl)c(Cl)cc3n12	> 100 µM

I would be grateful if you could provide TGI for each of the following entries.
1. C=C1C(=O)O[C@H]2[C@H]1CC/C(COC(=O)CCC(=O)OC/C1=C/CC[C@@]3(C)O[C@H]3[C@H]3OC(=O)C(=C)[C@@H]3CC1)=C\CC[C@@]1(C)O[C@@H]21
2. CCC1OC2C(CC=C(C)C)=C3OC(C)(O)C(C)(CC)C(O)C3=C3OC(=O)C=C1C32 (configuration not stated)
3. NC(=O)c1cc2ccccc2c(N=Nc2ccccc2)c1O
4. COC(=O)/C(C#N)=C1\N=NNN1CCCc1ccccc1
5. N#CC(C#N)=C1NC(=O)C(c2ccccc2)C(=O)N1 (configuration not stated)

(A)
23.6 µM
> 100 µM
> 100 µM
> 100 µM
> 100 µM

I would be grateful if you could provide TGI for each of the following entries.
1. O=C1c2cc3c(cc2-c2c1c1ccc([N+](=O)[O-])cc1c(=O)n2CCCCl)OCO3
2. CC(C)(C)c1cc(C2COC(=O)COCCOCC(=O)OCCOCCO2)cc(C(C)(C)C)c1O (configuration not stated)
3. CC(C)CC(NC(=O)C(Cc1ccccc1)NC(=O)C(COCc1ccccc1)NC(=O)OC(C)(C)C)C(=O)OCc1ccccc1 (stereo not drawn) (Boc-Ser(Bn)-Phe-Leu-OBn; configuration not given here)
4. N=C(/C=C/c1ccc(-c2cn3cc(/C=C/C(=N)N4CCOCC4)ccc3n2)cc1)N1CCOCC1
5. N#Cc1nn(-c2ccc(Cl)cc2)c(N)c2c(=N)n3nc(-c4ccccc4)cc3nc12
6. COC(=O)CP1(=O)OC2C(C3CCC2(C)C3(C)C)N1c1cc(C(F)(F)F)cc(C(F)(F)F)c1 (configuration not stated)

(A)
1: 5.93 µM; 2: > 100 µM; 3: > 100 µM; 4: > 100 µM; 5: > 56.7 µM; 6: > 100 µM

(Q) Quick check: TGI of CC1(C(O)c2ccccc2)CN(C(C)(C)C)C(=O)/C1=C\Sc1ccccc1 (configuration not stated) ?
(A) > 100 µM

Value source: PubChem BioAssay (NCI)
